Test system: CAKI-1 renal
assay.details: NCI-60 one-dose screen, 48 h
run.conditions: 10 µM unless noted
About 83,000 compounds went through this panel and 20% of them were active in at least one assay; those are over-represented in the sample as a whole. Activity calls are given as the source filed them. The calls were made as follows: active = growth percent below 10; inactive = the rest.
Lab note: assign the record to one of True for active, False for inactive

State the result this test recorded for COc1c(N2CC3CCCN(C(C)=O)C3C2)c(F)cc2c(=O)c(C(=O)N[C@H]3C(O)[C@@H](O)C(CO)O[C@H]3O)cn(C3CC3)c12 (stereo not given in full) .
False

# outcome recorded in this test, key = CC(C)(C)NC(=O)C(OC(=O)c1cccc(Cl)c1)c1ccc(Cl)cc1 (stereo not given)
False

So what was the verdict on CCN(CC)S(=O)(=O)c1ccc(NC(=O)CSc2nnc(C)n2-c2ccccc2)cc1 in this test?
False

Tell me the recorded outcome of this test for Oc1ccc(-c2nc3ccc4[nH]ncc4c3c3c2CCCC3)c2cccnc12 .
True

Dear colleague, could you share the recorded outcome for O=C(Nc1ccc(Br)cc1F)c1cc(Br)ccc1O when you have a moment?
True

What call does the record list for COc1cc(CCC[P+](c2ccccc2)(c2ccccc2)c2ccccc2)c(OC)c(OC)c1OC ?
False

Please share the test call associated with NC1=NC(c2cccc(Br)c2)c2sc3ccc(Cl)cc3c2N1 (stereo not given) .
False

Would you mind telling me which call this test gave Nc1cc2c(cc1Br)-c1cc(Cl)ccc1C2=O ?
False

Hey, what did the test say about CC1(C)C2CC1C1(/C=N\Nc3ccccc3)C(C2)C(C#N)(C#N)C1(C#N)C#N (stereo not given) ?
False

Hello, I am checking results. What call was entered for O=c1c2cc(C(F)(F)F)ccc2sc2c(NCCCNCCO)nc3ccccc3c12 ?
True

###

Test system: SW-620 colon
assay.details: NCI-60 one-dose screen, 48 h (100 = growth as untreated, 0 = no growth, -100 = all killed)
run.conditions: 10 µM unless noted
Compounds without any hit were thinned out: in the full panel of roughly 83,000, 20% have a hit.
So I've got a bunch of compounds here, and I need their growth values.
Hi! Could you send only the number? It should be in %, unit omitted.

For this compound ( Cc1cccc2c3c(sc12)C(c1ccc(Cl)cc1)C(C#N)=C(/N=C/c1ccc(Cl)cc1)O3 (centres undefined) ), measured growth is 26.1

response.value for CCCCCCCCCCCCCCCCCCOc1ccccc1CC(=O)OCC[N+](CC)(CC)CC (field: growth) = 21.6

Summary for this compound, CCN1C(=O)N(CC)C2Nn3c(s/c(=C4\C(=O)N(CCC(C)C)c5ccccc54)c3=O)=NC21 (centres undefined) : growth is 61.1

Summary for this compound, CN1C(=O)N(C)C2Nn3c(s/c(=C\c4ccccc4)c3=O)=NC21 (centres undefined) : growth is 96.9

// NS(=O)(=O)c1ccc(N=Nc2ccc(-c3nn4cc(-c5ccccc5)nc4s3)cc2)cc1 : growth value = 96.2

growth for Cc1nc(/N=C(\N)NC(=O)Nc2ccccc2Cl)sc1C is 36.3

Summary for this compound, NCCNc1nc2ccccc2c2c(=O)c3cccc(F)c3sc12 : growth is 17.7

The compound CC(=O)N1CCN(c2ccc(OCC3CO[C@](Cn4ccnc4)(c4ccc(Cl)cc4Cl)O3)cc2)CC1 (some centres undefined) showed growth equal to 104

Entry under test: O=C(N/N=C/[C@@H](O)[C@H](O)[C@H](O)CO)c1ccc(NC(=O)c2cccnc2)cc1 . Its growth was 98.9

###

For each record, write down the corresponding growth.
Test system: OVCAR-3 ovarian
assay.details: NCI-60 one-dose screen, 48 h (100 = growth as untreated, 0 = no growth, -100 = all killed)
run.conditions: 10 µM unless noted
Procedure: Growth inhibition of the OVCAR-3 human tumor cell line is measured as a screen for anti-cancer activity. Cells are grown in 96 well plates and exposed to the test compound for 48 hours. Compounds are tested at a single concentration, which is 10^-5 M for most compounds. The reported endpoint is percent growth (GI% or GIPRCNT), where numbers from 0 - 100% represent growth inhibition, and numbers from -100% - 0 represent cell death. For example, a value of 40 represents 60% growth inhibition. […]
The panel holds about 83,000 compounds, 20% with a hit somewhere; the sample as a whole holds those more often.
State just the number; it will be interpreted in %.

Measured on OVCAR-3 ovarian, N#C/C(=C\c1ccc(F)cc1)n1nc2cccc(F)c2n1 has a documented growth of -3.76

Measured growth for this entry Cc1cc(-c2cc(C)c(N)cc2C)c(C)cc1N on OVCAR-3 ovarian: 107

Log: OVCAR-3 ovarian, compound O=C(Nc1ccc(Cl)cc1F)c1ccccc1O , growth = 30.9

For COc1cccc2nc3n(c12)C(c1c(F)cccc1F)SC3 (stereo unspecified) on OVCAR-3 ovarian, measured growth was 132

growth value, target or system OVCAR-3 ovarian, for COc1ccc(NC2=C(Br)C(=O)C(C)=C(C)C2=O)cc1 : 60.3

GET /values?item= CCOC(=O)Nc1ccc(C(=O)/C=C/c2ccccc2)cc1 &system= OVCAR-3 ovarian returns growth: 86.8

Value (growth, OVCAR-3 ovarian) for record COc1cccc(-c2nc(-c3ccc(NS(=O)(=O)c4ccccc4)cc3)[nH]c2-c2ccnc(Br)c2)c1 = 30.2

Item: COc1ccc(CNC(=O)[C@H](O)[C@@H](N)Cc2ccccc2)cc1 | System: OVCAR-3 ovarian | growth: 119

Field growth (OVCAR-3 ovarian), entry C=C1CC[C@@]2(C#N)[C@H]3[C@H](CC[C@@H]2C)[C@@H](C)C[C@@H](CC(C)(C)C#N)[C@H]13 : 51

O=CN(SSN(C=O)C1CCCCC1)C1CCCCC1 tested on OVCAR-3 ovarian gave growth: 107

growth for OVCAR-3 ovarian with input CC/C=C\C[C@@H](O)C/C=C1/C(=O)C=C[C@H]1C/C=C\CCCC(=O)OC equals -2.32

###

System: MDA-MB-231 breast
assay.details: NCI-60 one-dose screen, 48 h
run.conditions: 10 µM unless noted
Compounds without any hit were thinned out: in the full panel of roughly 83,000, 20% have a hit. Activity calls are given as the source filed them. The calls were made as follows: active = growth percent below 10; inactive = the rest.
Reply using exactly one outcome from yes for active, no for inactive

Tell me the assay call for COc1ccc(/C=C2\Oc3cc(OCCN4CCC(Cc5ccccc5)CC4)ccc3C2=O)cc1OC please.
no

Which outcome was assigned to CN1CCN(c2ccc(-c3ccc4ncc(C#N)c(Nc5ccc(F)c(Cl)c5)c4c3)cc2)CC1 in this test?
no

Write down the call the test reported for this molecule. Item: COc1ccc(/C=C(/C#N)n2nnc3cccc(F)c32)cc1
yes

Given COc1ccc(CNC(=O)C(=O)[C@H](Cc2ccccc2)NC(=O)c2[nH]c3ccccc3c(=O)c2C)cc1 , state the outcome it received in this test.
no

State the result this test recorded for C=C1CC[C@H](C(C)C)[C@@H]2[C@H]1[C@H]1CC(=C)[C@@H](O)CC[C@@](C)(O)[C@@H]2O1 .
no

Per the assay record, what outcome was assigned to O=C(N/N=C/c1c(Cl)cccc1Cl)c1ccc(C(F)(F)F)nc1Nc1cccc(C(F)(F)F)c1 ?
no

Please let me know the test result on file for CC(C)c1cc(C(C)C)c(S(=O)(=O)Oc2ccc(NC(=O)c3ccc(Cl)cc3)cc2)c(C(C)C)c1 .
no

Record request — test call for Fc1cc2c(cc1Cl)N(c1ncnc3ccc(-c4cnc5cnccn45)cc13)CC2
no

Dear colleague, could you share the recorded outcome for O=C(CCc1nnc(-c2c(Cl)cccc2Cl)o1)c1nc2ccccc2[nH]1 when you have a moment?
no

Could you please tell me the result logged for COc1ccc(C(Cc2ccccc2)NCCN2CCOCC2)cc1 (stereo not given) in this assay?
no

Assay result, entry CCCCC1CCCC12NC(=O)NC2=O (stereo not given) — outcome?
no

Give the logged outcome of this assay for the following molecule: CC1Cc2ccccc2N1NC(=O)c1ccc(Cl)c(S(N)(=O)=O)c1 (stereo not given)
no

Fill in: this test's call for O=C(CS(=O)c1oc(-c2cccs2)nc1S(=O)(=O)c1ccc(Br)cc1)c1ccccc1 (stereo not given) is ___
no

What classification did Cc1ccc2nc(NC(=O)CSc3nc(Cl)c(C#N)c(-c4ccccc4)n3)sc2c1 end up with in this test?
no

Tell me the assay call for O=C1CSC(c2c(Cl)cccc2Cl)N1c1nc(Cl)cc(=O)[nH]1 (stereo not given) please.
no

# outcome recorded in this test, key = c1ccc(Nc2cc(-c3cccnc3)[nH]n2)cc1
no

For CCOC(=O)c1cn2ncnc(Oc3ccc(NC(=O)NCCN4CCOCC4)c(Cl)c3)c2c1C , which call appears in the assay record?
no

For this molecule, state the assay outcome: Cc1ccc(S(=O)(=O)Oc2ccc(NC(=O)c3ccc(Cl)cc3)cc2)cc1
no

Which outcome was entered for the molecule COc1c(N2CC3CCCN(C(C)=O)C3C2)c(F)cc2c(=O)c(C(=O)N[C@H]3C(O)[C@@H](O)C(CO)O[C@H]3O)cn(C3CC3)c12 (stereo not given in full) in this test?
no

Kindly provide the recorded test outcome for the following molecule: O=C(Nc1c2ccccc2nc2ccccc12)c1ccccc1CN1C(=O)c2ccccc2C1=O
no
